This collection of values is drawn from ChEMBL document CHEMBL1150213.

// values below are IC50; system is Epidermal growth factor receptor (Homo sapiens)
measured.metric: IC50 (µM)

* CCOc1cc(/C=C(\C#N)C(N)=O)cc(CSc2ccc(C)cc2)c1O | 20
* COC(=O)/C=C/c1cc(O)ccc1O | 103
* O=CN/C=C/c1ccc(O)c(O)c1O | 4.61
* CCOc1cc(/C=C(\C#N)C(N)=O)cc(CSc2ccc(O)cc2)c1O | 3
* O=c1c(-c2ccc(O)cc2)c(CN2CCCCC2)oc2cc(O)cc(O)c12 | 27.2
* O=c1c(-c2ccc(O)cc2)c(CSC2=NCCS2)oc2cc(O)cc(O)c12 | 12.5
* O=CN/C=C/c1cccc(O)c1O | 1.67
* O=CN/C=C/c1cc(O)ccc1O | 3.07
* CC(C)OC(=O)c1oc2cc(O)cc(O)c2c(=O)c1-c1ccc(O)cc1 | 28.1
* O=C(O)/C=C/c1cc(O)ccc1O | 44.4
* NC(=O)c1oc2cc(O)cc(O)c2c(=O)c1-c1ccc(O)cc1 | 31.9
* COC(=O)c1oc2cc(O)cc(O)c2c(=O)c1-c1ccc(O)cc1 | 6.09

====

Target chain: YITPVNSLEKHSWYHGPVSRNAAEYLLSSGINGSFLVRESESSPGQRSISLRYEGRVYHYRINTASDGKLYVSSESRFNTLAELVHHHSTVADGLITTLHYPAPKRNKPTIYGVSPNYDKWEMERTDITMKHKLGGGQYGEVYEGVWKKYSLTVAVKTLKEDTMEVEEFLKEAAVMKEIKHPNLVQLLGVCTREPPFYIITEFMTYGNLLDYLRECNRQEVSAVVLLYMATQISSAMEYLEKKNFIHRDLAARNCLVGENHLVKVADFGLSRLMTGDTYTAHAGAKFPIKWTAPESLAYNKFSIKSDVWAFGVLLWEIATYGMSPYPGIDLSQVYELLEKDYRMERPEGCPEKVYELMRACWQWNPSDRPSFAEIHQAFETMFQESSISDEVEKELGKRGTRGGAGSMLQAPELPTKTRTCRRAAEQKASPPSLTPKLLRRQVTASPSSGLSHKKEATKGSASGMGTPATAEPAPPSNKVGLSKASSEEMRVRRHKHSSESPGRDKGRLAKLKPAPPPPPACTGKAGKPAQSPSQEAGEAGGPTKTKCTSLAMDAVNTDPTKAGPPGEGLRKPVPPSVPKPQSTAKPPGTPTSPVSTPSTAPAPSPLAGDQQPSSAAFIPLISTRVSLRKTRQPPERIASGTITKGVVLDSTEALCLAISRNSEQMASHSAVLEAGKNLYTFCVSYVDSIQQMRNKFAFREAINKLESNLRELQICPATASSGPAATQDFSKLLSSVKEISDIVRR
pIC50: −log10 of the molar value.
Listed compounds paired with reported pIC50
measured.metric: pIC50

- Cc1ccc(NP(=O)(O)OP(=O)(O)OP(=O)(O)OP(=O)(O)OC[C@H]2O[C@@H](n3cnc4c(N)ncnc43)[C@H](O)[C@@H]2O)cc1: 4.70
- Nc1ncnc2c1ncn2[C@@H]1O[C@H](COP(=O)(O)OP(=O)(O)OP(=O)(O)Oc2ccccc2)[C@@H](O)[C@H]1O: 5.00
- CC(=O)NC(Cc1ccc(NP(=O)(O)OP(=O)(O)OP(=O)(O)OC[C@H]2O[C@@H](n3cnc4c(N)ncnc43)[C@H](O)[C@@H]2O)cc1)C(N)=O (stereo not given in full): 4.40
- Nc1ncnc2c1ncn2[C@@H]1O[C@H](COC(=O)c2ccc(S(=O)(=O)Nc3ccccc3)cc2)[C@@H](O)[C@H]1O: 4.70
- COc1cc(/C=C/[N+](=O)[O-])ccc1OS(=O)(=O)c1ccc(C(=O)O)cc1: 4.40
- Nc1ncnc2c1ncn2[C@@H]1O[C@H](COC(=O)c2ccc(S(N)(=O)=O)cc2)[C@@H](O)[C@H]1O: 4.00
- CC(=O)NC(Cc1ccc(OS(=O)(=O)c2ccc(C(=O)OC[C@H]3O[C@@H](n4cnc5c(N)ncnc54)[C@H](O)[C@@H]3O)cc2)cc1)C(N)=O (stereo not given in full): 4.00
- Nc1ncnc2c1ncn2[C@@H]1O[C@H](COC(=O)c2ccc(S(=O)(=O)Oc3ccccc3)cc2)[C@@H](O)[C@H]1O: 3.70
- COc1cc(/C=C/[N+](=O)[O-])ccc1OS(=O)(=O)c1ccc(C(=O)OC[C@H]2O[C@@H](n3cnc4c(N)ncnc43)[C@H](O)[C@@H]2O)cc1: 4.00
- CS(=O)(=O)c1ccc(C(=O)OC[C@H]2O[C@@H](n3cnc4c(N)ncnc43)[C@H](O)[C@@H]2O)cc1: 4.22
- CC(C)(C)OC(=O)NCCNC(=O)c1ccc(S(=O)(=O)Oc2ccc(/C=C/[N+](=O)[O-])cc2)cc1: 4.00
- Nc1ncnc2c1ncn2[C@@H]1O[C@H](COP(=O)(O)OP(=O)(O)OP(=O)(O)OP(=O)(O)Oc2ccccc2)[C@@H](O)[C@H]1O: 3.40
- O=C(O)c1ccc(S(=O)(=O)Oc2ccc(/C=C/[N+](=O)[O-])cc2)cc1: 4.00
- CC(=O)NCCNP(=O)(O)OP(=O)(O)OP(=O)(O)OC[C@H]1O[C@@H](n2cnc3c(N)ncnc32)[C@H](O)[C@@H]1O: 4.52

====

Target: Epidermal growth factor receptor (Homo sapiens, UniProt P00533)
Sequence (P00533 whole entry): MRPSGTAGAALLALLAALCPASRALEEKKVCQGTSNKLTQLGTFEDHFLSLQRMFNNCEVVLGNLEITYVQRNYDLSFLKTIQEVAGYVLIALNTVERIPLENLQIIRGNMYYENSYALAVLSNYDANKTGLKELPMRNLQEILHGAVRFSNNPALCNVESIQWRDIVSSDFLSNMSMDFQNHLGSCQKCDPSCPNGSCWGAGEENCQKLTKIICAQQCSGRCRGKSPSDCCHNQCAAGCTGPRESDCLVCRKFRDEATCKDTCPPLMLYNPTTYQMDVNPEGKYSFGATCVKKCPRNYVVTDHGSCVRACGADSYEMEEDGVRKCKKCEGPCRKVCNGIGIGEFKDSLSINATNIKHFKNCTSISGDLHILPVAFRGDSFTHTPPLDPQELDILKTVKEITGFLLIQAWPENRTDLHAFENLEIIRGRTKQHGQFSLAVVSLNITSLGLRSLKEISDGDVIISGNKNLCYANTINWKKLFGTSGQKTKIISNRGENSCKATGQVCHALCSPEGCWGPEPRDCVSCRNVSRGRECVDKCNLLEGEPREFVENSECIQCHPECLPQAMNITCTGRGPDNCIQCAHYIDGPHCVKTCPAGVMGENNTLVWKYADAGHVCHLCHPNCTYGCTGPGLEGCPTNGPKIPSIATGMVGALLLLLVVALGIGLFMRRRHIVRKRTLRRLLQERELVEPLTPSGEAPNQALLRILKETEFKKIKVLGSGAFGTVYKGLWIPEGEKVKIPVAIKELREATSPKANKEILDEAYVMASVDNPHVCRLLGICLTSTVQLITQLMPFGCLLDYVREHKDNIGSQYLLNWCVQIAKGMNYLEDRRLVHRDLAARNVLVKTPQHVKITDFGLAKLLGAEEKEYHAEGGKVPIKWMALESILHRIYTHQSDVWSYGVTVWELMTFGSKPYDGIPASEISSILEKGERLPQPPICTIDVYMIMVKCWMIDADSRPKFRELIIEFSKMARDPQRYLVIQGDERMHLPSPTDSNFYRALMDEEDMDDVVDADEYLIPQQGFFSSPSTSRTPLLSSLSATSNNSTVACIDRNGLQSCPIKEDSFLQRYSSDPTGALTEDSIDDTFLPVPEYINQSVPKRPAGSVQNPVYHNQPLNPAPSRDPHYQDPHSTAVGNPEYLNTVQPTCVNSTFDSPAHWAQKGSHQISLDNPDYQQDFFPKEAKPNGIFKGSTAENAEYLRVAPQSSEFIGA
Assay: Inhibition of EGFR in human A431 cells at 400 nmol/mg protein in absence of EGF
Format: cell-based
Conditions: A-431
Where a SMILES comes first, the peptide text is derived from it. The star is where a group is joined. CH2Cl = ClC*
Listed molecules paired with reported inhibition
measured.metric: inhibition (%)

- CC(C)C[C@H](N)C(=O)CCl: 16
- O=C(CCl)[C@H](Cc1ccccc1)NOCc1ccccc1: 21
- CC(=O)N[C@@H](Cc1ccccc1)C(=O)NCC(=O)N[C@@H](C)C(=O)N[C@@H](CC(C)C)C(=O)CCl (Ac-FGAL-CH2Cl): 59
- C[C@H](NC(=O)OCc1ccccc1)C(=O)CCl: 71
- CC(=O)NCC(=O)NCC(=O)N[C@@H](C)C(=O)N[C@@H](Cc1ccccc1)C(=O)CCl (Ac-GGAF-CH2Cl): 5
- CC(C)C[C@H](NC(=O)OCc1ccccc1)C(=O)C=[N+]=[N-]: 15
- CC(=O)N[C@@H](C)C(=O)N[C@@H](C)C(=O)N[C@@H](Cc1ccccc1)C(=O)N[C@H](C(=O)CCl)[C@@H](C)O (Ac-AAFT-CH2Cl): 4
- CC(C)C[C@H](NC(=O)OC(C)(C)C)C(=O)CBr: 65
- O=C(CCl)[C@H](Cc1c[nH]c2ccccc12)NOCc1ccccc1: 6

====

// values below are IC50; system is Epidermal growth factor receptor (Homo sapiens)
measured.metric: IC50 (µM)

• N#C/C(=C\c1cc(O)ccc1O)C(=O)O = 20
• O=C(O)/C=C/c1ccc(O)c(O)c1 = 1000
• COc1cc(O)c2c(=O)c(-c3ccc(O)cc3)coc2c1 = 14.1
• O=C(O)c1cc(N(Cc2ccccc2O)Cc2ccccc2O)ccc1O = 1.37
• N#C/C(=C\c1ccc(O)c(O)c1)C(=O)c1ccc(F)cc1 = 0.6
• Cc1ccc(C(=O)/C(C#N)=C/c2ccc(O)c(O)c2)cc1 = 0.9
• O=C(O)c1cc(N(Cc2cc(O)ccc2O)Cc2cc(O)ccc2O)ccc1O = 0.0252
• CC(C)(C)OC(=O)NCCNC(=O)c1ccc(S(=O)(=O)Oc2ccc(/C=C/[N+](=O)[O-])cc2)cc1 = 1
• C/C(=C\c1ccc(O)c(O)c1)[N+](=O)[O-] = 9
• NCCNC(=O)c1ccc(S(=O)(=O)Oc2ccc(/C=C/[N+](=O)[O-])cc2)cc1 = 5
• N#C/C(=C/c1ccc(O)c(O)c1)C(=O)NC1CCCCC1 = 2
• COc1ccc(-c2cc(=O)c3c(O)cc(O)cc3o2)cc1 = 141
• O=P(O)(O)C(O)c1ccc2ccccc2c1 (configuration not stated) = 200
• O=C(O)c1ccc(S(=O)(=O)Oc2ccc(/C=C/[N+](=O)[O-])cc2)cc1O = 0.05
• N#CC(C#N)=C(O)c1cc(O)c(O)c(O)c1 = 10
• O=C(O)c1ccc(O)c(N(Cc2ccccc2O)Cc2cc(O)ccc2O)c1 = 0.524
• COC(=O)c1ccc(S(=O)(=O)Oc2ccc(/C=C/[N+](=O)[O-])cc2)cc1O = 2
• N#CC(C#N)=C(C#N)c1ccc(O)cc1 = 600
• O=C(O)c1ccc(O)cc1 = 72.4
• COc1cc(C(C#N)=C(C#N)C#N)cc(OC)c1O = 900
• N#CC(C#N)=C(C#N)c1cc(O)cc(O)c1 = 10

====

Target: Epidermal growth factor receptor (Homo sapiens, UniProt P00533)
pIC50: −log10 of the molar value.
Label scheme for pIC50: lower than 6 is n, 6 and above is y.

• N#CC(C#N)=C(C#N)c1ccc(O)c(O)c1 = n
• N#C/C(=C\c1ccc(O)c(O)c1)C(=O)O = n
• COc1c(O)cc(O)c2c(=O)c(-c3ccc(O)cc3)coc12 [PSI-TECTORIGENIN] = y
• N#CC(C#N)=C(N)/C(C#N)=C/c1ccc(O)cc1 = y
• N#C/C(=C\c1ccc(O)c(O)c1)C(=O)c1ccc(O)c(O)c1 = y
• COc1ccc(-c2coc3cc(O)cc(O)c3c2=O)cc1 [BIOCHANIN] = n
• COc1cc(/C=C/[N+](=O)[O-])ccc1O = n
• O=c1cc(-c2ccccc2)oc2ccccc12 [FLAVONE] = n
